test.target: human α1β1 integrin (human), P56199
Sequence (P56199 29-1179, chain 1 of 2): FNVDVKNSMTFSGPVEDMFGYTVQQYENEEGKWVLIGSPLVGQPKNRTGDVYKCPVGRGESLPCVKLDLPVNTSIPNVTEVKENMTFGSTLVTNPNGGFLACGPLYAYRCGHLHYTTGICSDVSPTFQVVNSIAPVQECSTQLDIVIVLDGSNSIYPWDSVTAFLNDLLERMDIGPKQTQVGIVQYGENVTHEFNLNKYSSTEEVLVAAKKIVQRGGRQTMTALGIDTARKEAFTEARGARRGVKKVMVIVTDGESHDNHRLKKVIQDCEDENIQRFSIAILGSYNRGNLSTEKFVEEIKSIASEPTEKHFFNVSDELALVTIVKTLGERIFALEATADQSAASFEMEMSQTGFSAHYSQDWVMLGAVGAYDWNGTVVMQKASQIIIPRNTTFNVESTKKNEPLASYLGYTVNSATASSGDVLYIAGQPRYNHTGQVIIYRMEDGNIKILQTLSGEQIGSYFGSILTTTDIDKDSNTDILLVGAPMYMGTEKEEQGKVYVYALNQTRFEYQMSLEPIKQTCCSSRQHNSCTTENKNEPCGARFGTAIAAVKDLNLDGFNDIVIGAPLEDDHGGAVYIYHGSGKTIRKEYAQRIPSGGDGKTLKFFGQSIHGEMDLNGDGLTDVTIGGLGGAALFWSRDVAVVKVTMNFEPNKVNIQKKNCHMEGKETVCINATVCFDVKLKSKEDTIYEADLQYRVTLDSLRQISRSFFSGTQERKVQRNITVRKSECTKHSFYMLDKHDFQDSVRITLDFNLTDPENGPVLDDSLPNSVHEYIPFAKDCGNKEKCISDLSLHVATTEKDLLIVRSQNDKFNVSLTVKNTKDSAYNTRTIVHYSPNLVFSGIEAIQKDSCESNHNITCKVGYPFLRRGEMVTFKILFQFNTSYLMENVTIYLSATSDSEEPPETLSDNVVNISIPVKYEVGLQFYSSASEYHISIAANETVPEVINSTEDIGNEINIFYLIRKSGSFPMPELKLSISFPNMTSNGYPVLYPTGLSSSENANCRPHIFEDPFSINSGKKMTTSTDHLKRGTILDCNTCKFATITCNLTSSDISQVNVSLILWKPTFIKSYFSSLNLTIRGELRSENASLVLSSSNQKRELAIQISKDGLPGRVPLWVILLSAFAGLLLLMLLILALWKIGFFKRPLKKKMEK
Sequence (P05556 21-798, chain 2 of 2, further chain): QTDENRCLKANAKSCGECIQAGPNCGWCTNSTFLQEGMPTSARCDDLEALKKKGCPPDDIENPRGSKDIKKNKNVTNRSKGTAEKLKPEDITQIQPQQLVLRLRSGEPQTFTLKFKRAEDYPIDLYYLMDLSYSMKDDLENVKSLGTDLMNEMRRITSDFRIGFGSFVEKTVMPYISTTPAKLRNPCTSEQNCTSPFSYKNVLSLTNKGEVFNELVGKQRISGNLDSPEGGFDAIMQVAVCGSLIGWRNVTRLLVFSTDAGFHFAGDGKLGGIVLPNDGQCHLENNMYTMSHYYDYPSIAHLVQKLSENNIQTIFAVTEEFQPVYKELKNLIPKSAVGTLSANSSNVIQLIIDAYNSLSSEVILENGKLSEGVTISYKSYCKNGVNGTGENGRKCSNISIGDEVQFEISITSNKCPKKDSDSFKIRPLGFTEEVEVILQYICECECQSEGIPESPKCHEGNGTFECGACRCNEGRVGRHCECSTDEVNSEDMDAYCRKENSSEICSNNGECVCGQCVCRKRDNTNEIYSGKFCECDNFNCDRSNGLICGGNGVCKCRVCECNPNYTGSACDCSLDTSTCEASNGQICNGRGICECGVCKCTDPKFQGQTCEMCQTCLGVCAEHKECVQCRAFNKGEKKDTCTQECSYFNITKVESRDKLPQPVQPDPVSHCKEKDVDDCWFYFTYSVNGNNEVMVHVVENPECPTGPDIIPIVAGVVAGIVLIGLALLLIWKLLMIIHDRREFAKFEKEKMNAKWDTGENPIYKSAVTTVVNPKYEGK
assay.method.text: inhibition of adhesion of α1K562 cells to collagen IV
quantity.kind: IC50 (nM)
Answer in nM, number only, no unit symbol.

Request: Please give the measured IC50 for this binder: CTTGPCCRQCKLKPAGTTCWKTSRTSHYCTGKSCDCPVYQG (modifications not checked) [viperisrastatin]
Response: 0.08

Request: Please give the measured IC50 for this binder: CTTGPCCRQCKLKPAGTTCWKTSLTSHYCTGKSCDCPLYPG (modifications not checked) [obtustatin]
Response: 2
